B1: HDAC6 (parent)
chain: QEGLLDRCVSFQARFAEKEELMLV

variants of: B1; test: protein stability index of a GFP-peptide fusion (GPS, HEK-293T) (PSI 1-6); higher = more stable; conditions: c terminus: a fixed tail appended;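 further: lentivirally expressed fusions sorted by FACS into six bins by GFP to DsRed ratio, PSI derived from sequencing read proportions per bin multiplied by bin number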
Could you label it met if measured protein stability index is 2 or higher, and not met otherwise?

Given L5G , state whether its protein stability index is at least 2.
not met

Given S10E , state whether its protein stability index is at least 2.
met

Given L23K , state whether its protein stability index is at least 2.
met

Given M22T , state whether its protein stability index is at least 2.
met

Given E17L , state whether its protein stability index is at least 2.
not met

Given E19M , state whether its protein stability index is at least 2.
not met

Given V9G , state whether its protein stability index is at least 2.
not met

Given D6Q , state whether its protein stability index is at least 2.
not met

Given K18F , state whether its protein stability index is at least 2.
met

Given E20V , state whether its protein stability index is at least 2.
not met

Given L4G , state whether its protein stability index is at least 2.
not met
